Assay: Volume of distribution at steady state in ICR mouse at 2 mg/kg, iv measured up to 24 hrs by LC-MS/MS analysis
Assay type: ADME, organism-based
Conditions: in vivo, read-out: Vdss
PROPERTY_MEASURED: Vd (L/kg)
Number in L/kg, nothing else.

Problem: Entry CCC(=O)n1nc(C)cc1Nc1cc(N2CCN(CC)CC2)nc(N[C@H]2CCN(C(=O)c3ccc(Cl)cc3F)C2)n1 has what Vd?
Solution: 3.4

Problem: For CCC(=O)n1nc(Nc2cc(N3CCN(CC)CC3)nc(N[C@H]3CCN(C(=O)c4ccc(Cl)cc4F)C3)n2)cc1C , what is its reported Vd?
Solution: 0.9

Problem: Bench note: what Vd did CCOC(=O)n1nc(C)cc1Nc1cc(N2CCN(CC)CC2)nc(N[C@H]2CCN(C(=O)c3ccc(Cl)cc3F)C2)n1 show?
Solution: 2.8

Problem: I'd like to know its Vd. The compound in question is CCN1CCN(c2cc(Nc3cc(C)nn3C(=O)OC(C)(C)C)nc(N[C@H]3CCN(C(=O)c4ccc(Cl)cc4F)C3)n2)CC1
Solution: 4.9

Problem: Can you share its Vd? I mean this compound: CCN1CCN(c2cc(Nc3cc(C)[nH]n3)nc(N[C@H]3CCN(C(=O)c4ccc(Cl)cc4F)C3)n2)CC1
Solution: 11.3

Problem: Query: Vd; subject: CCN1CCN(c2cc(Nc3cc(C)nn3C(=O)C(C)(C)C)nc(N[C@H]3CCN(C(=O)c4ccc(Cl)cc4F)C3)n2)CC1
Solution: 18.8
